Biological target: T1, recombinant human M-CSF (human, UniProt P09603 33-190, limits assumed)
T1 construct: The active form is described as a disulfide bonded dimer; also called M-SCF; CSF-1
T1 sequence: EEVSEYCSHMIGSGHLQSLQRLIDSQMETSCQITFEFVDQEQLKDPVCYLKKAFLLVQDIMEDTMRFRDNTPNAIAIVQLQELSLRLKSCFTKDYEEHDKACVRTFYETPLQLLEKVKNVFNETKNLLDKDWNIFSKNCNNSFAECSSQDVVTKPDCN
Test: SPR (Biacore), M-CSF amine-coupled on CM5 chip, antibody flowed, 25 C, 1:1 model
endpoint: kon (M⁻¹ s⁻¹)
One number for each entry, in M⁻¹ s⁻¹.

[in] What does the data say about its kon? Entry: heRX1-8.G2 (antibody, V domains shown, copies: 2 + 2) VH: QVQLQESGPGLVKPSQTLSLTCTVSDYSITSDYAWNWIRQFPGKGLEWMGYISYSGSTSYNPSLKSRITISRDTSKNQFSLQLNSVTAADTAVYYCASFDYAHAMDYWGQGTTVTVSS VL: EIVLTQSPGTLSVSPGERVTFSCRASQSIGTSIHWYQQKTGQAPRLLIKYASESISGIPDRFSGSGSGTDFTLTISRVESEDFADYYCQQINSWPTTFGQGTKLEIK
[out] 152000
